biological target: H1 histamine receptor (Bos taurus, UniProt P30546); construct: the receptors were obtained from bovine cerebellar membrane tissue; from tissue; host or cells: bovine cerebellar membranes; experiment: Histamine H1 competitive binding assay ([3H]pyrilamine); design: species or system bovine; conditions: read-out: Ki H1
Sequence (P30546 whole entry): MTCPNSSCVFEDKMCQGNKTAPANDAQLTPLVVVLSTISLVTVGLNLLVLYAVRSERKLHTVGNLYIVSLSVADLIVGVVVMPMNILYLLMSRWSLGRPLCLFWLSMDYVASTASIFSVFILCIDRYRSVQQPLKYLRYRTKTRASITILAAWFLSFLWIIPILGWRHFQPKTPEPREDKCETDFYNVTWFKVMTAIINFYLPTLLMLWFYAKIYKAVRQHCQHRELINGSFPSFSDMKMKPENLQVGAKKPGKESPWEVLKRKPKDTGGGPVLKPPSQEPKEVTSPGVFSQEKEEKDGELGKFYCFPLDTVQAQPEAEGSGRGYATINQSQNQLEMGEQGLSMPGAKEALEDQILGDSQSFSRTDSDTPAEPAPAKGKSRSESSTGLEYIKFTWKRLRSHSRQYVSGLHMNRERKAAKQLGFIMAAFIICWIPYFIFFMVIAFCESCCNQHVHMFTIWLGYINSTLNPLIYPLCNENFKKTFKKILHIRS
Each entry below lists one item and its recorded pKi value.
Keep it numeric: pKi is minus log10 of the concentration in mol/L.

# example entries with known answers
Query: pKi; subject: O=C(O)CCCN1CCC(=C2c3ccccc3COc3ccccc32)CC1 [Compound 70e]
6.87

If you can, please state the reported pKi value of COc1ccc2c(c1)COc1ccccc1C2=C1CCN(CC2(C(=O)O)CC2)CC1 [Compound 50b] .
7.16

Bench note: what pKi did O=C(O)C1(CN2CCC(=C3c4ccc(F)cc4COc4ccccc43)CC2)CC1 [Compound 49b] show?
7.21

Continuing:
Please look up its pKi: CC(C)(CCN1CCC(=C2c3ccc(F)cc3COc3ccccc32)CC1)C(=O)O [Compound 61a]
6.74

###

target: H1 histamine receptor (Bos taurus); construct: the receptors were obtained from bovine cerebellar membrane tissue; from tissue; host or cells: bovine cerebellar membranes; assay: Histamine H1 competitive binding assay ([3H]pyrilamine); design: species or system bovine
MEASUREMENT TYPE: Ki (µM)
Report the value in µM with no unit label.

Fill in the blank: the reported Ki of CC(CC(=O)O)N1CCC(=C2c3ccc(F)cc3COc3ccccc32)CC1 (stereo not shown) is ____.
0.0258

###

test: 14-day dog study with recovery phase; assay type: in vivo; settings: Beagle, dog, in vivo
MEASUREMENT TYPE: NOAEL at 14 days
Please provide the amount together with its unit, number first.

Requested read-out: NOAEL at 14 days. Entry: CC(C)(CN1CCC(=C2c3ccc(F)cc3COc3ccccc32)CC1)C(=O)O [Compound 49a]
70 mg/kg/day

###

test: Brain levels of parent drug after oral administration; settings: rat, 3 mg/kg
MEASUREMENT TYPE: Kp

Which Kp is listed for CC(C)(CN1CCC(=C2c3ccc(F)cc3COc3ccccc32)CC1)C(=O)O [Compound 49a] ?
1

###

system: male Wistar rats; assay type: in vivo; conditions: 100 mg/kg oral
MEASUREMENT TYPE: Irwin at mg/kg dose

Find the recorded Irwin at mg/kg dose belonging to O=C(O)C1(CCN2CCC(=C3c4ccccc4COc4ccccc43)CC2)CC1 [Compound 70b] and report it.
some side effects

Need Irwin at mg/kg dose of O=C(O)CCCN1CCC(=C2c3ccccc3COc3ccccc32)CC1 [Compound 70e] , thanks.
some side effects

###

target: M3 muscarinic receptor (Homo sapiens); assay: Muscarinic M3 binding assay; parameters: purchased PerkinElmer, Inc., Wellesley, Mass; host or cells: CHO cells; conditions: M3 receptor binding (Table 19); read-out: Ki
Sequence (P20309 whole entry): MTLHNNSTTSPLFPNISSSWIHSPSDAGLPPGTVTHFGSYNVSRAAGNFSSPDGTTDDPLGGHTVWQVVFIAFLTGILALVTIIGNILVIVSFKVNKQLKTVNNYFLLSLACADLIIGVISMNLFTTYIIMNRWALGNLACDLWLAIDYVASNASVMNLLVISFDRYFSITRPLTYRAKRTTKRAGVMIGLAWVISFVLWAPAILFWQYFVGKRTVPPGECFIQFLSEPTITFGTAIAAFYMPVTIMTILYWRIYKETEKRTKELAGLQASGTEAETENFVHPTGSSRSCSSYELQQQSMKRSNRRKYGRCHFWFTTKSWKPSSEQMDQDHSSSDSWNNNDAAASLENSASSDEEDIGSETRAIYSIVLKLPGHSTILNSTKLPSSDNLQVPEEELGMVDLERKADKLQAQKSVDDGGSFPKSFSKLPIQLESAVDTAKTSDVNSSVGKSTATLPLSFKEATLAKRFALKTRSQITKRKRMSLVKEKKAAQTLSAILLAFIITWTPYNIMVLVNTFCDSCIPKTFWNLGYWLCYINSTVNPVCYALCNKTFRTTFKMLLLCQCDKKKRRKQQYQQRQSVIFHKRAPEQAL
MEASUREMENT TYPE: Ki

Query (molecule): CC(CC(=O)O)N1CCC(=C2c3ccc(F)cc3COc3ccccc32)CC1 (stereo not shown) ; field requested: Ki
> 10 µM

###

assay: Plasma pharmacokinetics in rats; type: in vivo, rat; settings: plasma; rat; 3 mg/kg; after oral administration
MEASUREMENT TYPE: Tmax (min)
The reply should contain only the number, in min.

Query: Tmax; subject: CC(C)(CN1CCC(=C2c3ccc(F)cc3COc3ccccc32)CC1)C(=O)O [Compound 49a]
15

###

biological target: M3 muscarinic receptor (Homo sapiens); test: Muscarinic M3 binding assay
pKi: −log10 of the molar value.
MEASUREMENT TYPE: pKi

# value lookup — system M3 muscarinic receptor (Homo sapiens), readout pKi, item "COc1ccc2c(c1)COc1ccc(F)cc1C2=C1CCN(CCCC(=O)O)CC1"
< 5.00

---
Lab note: need pKi with M3 muscarinic receptor (Homo sapiens) for entry "COc1ccc2c(c1)COc1ccc(F)cc1C2=C1CCN(CC2(C(=O)O)CC2)CC1" , please look it up.
< 5.00
